Target: human PPARγ (Homo sapiens, UniProt P37231)
Sequence (P37231 238-503 limits assumed): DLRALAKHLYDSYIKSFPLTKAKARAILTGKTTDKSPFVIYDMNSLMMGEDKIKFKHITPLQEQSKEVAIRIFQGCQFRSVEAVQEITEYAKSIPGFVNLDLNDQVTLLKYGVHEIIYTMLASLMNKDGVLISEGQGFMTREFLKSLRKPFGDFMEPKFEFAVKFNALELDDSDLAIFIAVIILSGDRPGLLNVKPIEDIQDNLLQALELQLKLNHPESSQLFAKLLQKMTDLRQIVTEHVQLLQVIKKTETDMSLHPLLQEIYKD
Assay: PPARγ activation test (GAL-4/luciferase reporter in NIH/3T3 cell)
Conditions: GAL-4/human PPARγ LBD luciferase reporter, 24 hrs incubation
pEC50: −log10 of the molar value.
measured_endpoint: pEC50

a: CC(C)NC(=O)C1=C(c2csc3ccccc23)c2ccc(OCCN3CCOCC3)cc2/C1=[N+](/C)[O-] [Compound 94]
b: CCOC(=O)C1=C(C2CC2)c2ccc(OCCCc3ccccc3)cc2/C1=[N+](/C)[O-] [Compound 68]
c: C/[N+]([O-])=C1\C(C(=O)NC2CCCCC2)=C(c2ccccc2)c2ccc(OCCCc3ccccc3)cc21 [Compound 39]
Put the above entries in order of falling pEC50. Return value: ordered labels per request.
b, c, a

###

Target: human PPARγ (Homo sapiens)
Assay: PPARγ activation test (GAL-4/luciferase reporter in NIH/3T3 cell)
Conditions: GAL-4/human PPARγ LBD luciferase reporter, 24 hrs incubation
pEC50: −log10 of the molar value.
measured_endpoint: pEC50

Example results:
molecule: CC(C)NC(=O)C1=C(c2ccccc2)c2ccc(OCCCc3ccccc3)cc2/C1=[N+](/C)[O-] [Compound 38]
measured_target: human PPARγ (Homo sapiens)
pEC50: 6.77
--
molecule: CCOC(=O)C1=C(c2ccccc2)c2cc(OCCCc3ccccc3)ccc2/C1=[N+](/C)[O-] [Compound 42]
measured_target: human PPARγ (Homo sapiens)
pEC50: 7.10
--
molecule: CCOC(=O)C1=C(c2ccccc2)c2ccc(OCCc3ccc(CC)cn3)cc2/C1=[N+](/C)[O-] [Compound 79]
measured_target: human PPARγ (Homo sapiens)
pEC50: 7.70
--
molecule: CCc1ccc(CCOc2ccc3c(c2)/C(=[N+](/C)[O-])C(C(=O)NC(C)C)=C3c2ccccc2)nc1 [Compound 81]
measured_target: human PPARγ (Homo sapiens)
pEC50: 7.35
--
molecule: C/[N+]([O-])=C1\C(C#N)=C(c2ccccc2)c2ccc(OCCCc3ccccc3)cc21 [Compound 75]
measured_target: human PPARγ (Homo sapiens)
pEC50: 7.02

I: CCOC(=O)C1=C(c2ccccc2)c2cc3c(cc2/C1=[N+](/C)[O-])OCO3 [Compound 48]
II: CCOC(=O)C1=C(c2ccccc2)c2ccc(COCCc3ccccc3)cc2/C1=[N+](/C)[O-] [Compound 43]
III: CC(C)OC(=O)C1=C(c2ccccc2)c2ccc(OCCN3CCOCC3)cc2/C1=[N+](/C)[O-] [Compound 8]
# desc sort on pEC50 across 3 molecules # respond with the labels, arranged in the requested order
I, III, II
(I: 8.00, III: 7.60, II: 7.10)

###

Molecular target: human PPARγ (Homo sapiens)
Test: PPARγ activation test (GAL-4/luciferase reporter in NIH/3T3 cell)
Conditions: GAL-4/human PPARγ LBD luciferase reporter, 24 hrs incubation
pEC50: −log10 of the molar value.
measured_endpoint: pEC50

// below: answered molecules
line_notation: C/[N+]([O-])=C1\C(C(N)=O)=C(c2ccccc2)c2ccc(OCCCc3ccccc3)cc21
measured_target: human PPARγ (Homo sapiens)
observed: 6.96
//
line_notation: CCOC(=O)C1=C(c2ccccc2)c2ccc(OCCC3CCCCC3)cc2/C1=[N+](/C)[O-]
measured_target: human PPARγ (Homo sapiens)
observed: 7.30
//
line_notation: CC(C)NC(=O)C1=C(c2ccccc2)c2ccc(OCCN3CCOCC3)cc2/C1=[N+](/C)[O-]
measured_target: human PPARγ (Homo sapiens)
observed: 6.70
//
line_notation: CC(C)NC(=O)C1=C(c2ccccc2)c2ccc(OCCc3ccccn3)cc2/C1=[N+](/C)[O-]
measured_target: human PPARγ (Homo sapiens)
observed: 7.00
//
line_notation: CCOC(=O)C1=C(c2ccccc2)c2ccc(CN3CCOCC3)cc2/C1=[N+](/C)[O-]
measured_target: human PPARγ (Homo sapiens)
observed: 6.77

1: CCOC(=O)C1=C(c2ccccc2)c2ccc(OCCCCCc3ccccc3)cc2/C1=[N+](/C)[O-]
2: C/[N+]([O-])=C1\C(C(=O)NC2CCCCC2)=C(c2ccccc2)c2ccc(OCCN3CCOCC3)cc21
Response body: label of entry with the larger pEC50; valid values 1 , 2 . // output: label of the selected item
2

###

Measured melting point accompanies every entry in the list below.

Use these answered entries as a reference point.
line_notation: C/[N+]([O-])=C1\C(C#N)=C(c2ccccc2)c2ccc(OCCCc3ccccc3)cc21
observed: 126 to 128 °C
--
line_notation: CC(C)OC(=O)C1=C(c2ccccc2)c2ccc(OCCN3CCOCC3)cc2/C1=[N+](/C)[O-]
observed: 79 to 81 °C
--
line_notation: CCOC(=O)C1=C(c2ccccc2)c2ccc(OCCN3CCOCC3)cc2/C1=[N+](\C)[O-]
observed: 151 to 152 °C

Now, please, on to the next compound.
Give the measured melting point for CC(C)NC(=O)C1=C(c2csc3ccccc23)c2ccc(OCCN3CCOCC3)cc2/C1=[N+](/C)[O-]
77 to 79 °C

###

measured_endpoint: melting point

Consider the following illustrative entries.
molecule: CC(C)OC(=O)C1=C(c2ccccc2)c2ccc(OCCN3CCOCC3)cc2/C1=[N+](\C)[O-] [Compound 101]
melting point: 153 to 155 °C
--
molecule: C/[N+]([O-])=C1\C=C(c2ccccc2)c2ccc(OCCN3CCOCC3)cc21 [Compound 82]
melting point: 122 to 123 °C
--
molecule: CC(C)NC(=O)C1=C(c2ccccc2)c2cc(OCCN3CCOCC3)ccc2/C1=[N+](/C)[O-] [Compound 100]
melting point: 134 to 137 °C
--
molecule: CCOC(=O)C1=C(c2ccccc2)c2cc3c(cc2/C1=[N+](/C)[O-])OCO3 [Compound 48]
melting point: 119 to 121 °C
--
molecule: CC(C)NC(=O)C1=C(c2ccccc2)c2cc(OCCc3ccccn3)ccc2/C1=[N+](/C)[O-] [Compound 99]
melting point: 158 to 159 °C
--
molecule: CC(C)NC(=O)C1=C(c2ccccc2)c2ccc(OCCN3CCOCC3)cc2/C1=[N+](/C)[O-] [Compound 50]
melting point: 123 to 125 °C
--
molecule: CC(C)NC(=O)C1=C(c2ccccc2)c2ccc(OCCc3ccccn3)cc2/C1=[N+](/C)[O-] [Compound 80]
melting point: 124 to 126 °C

Next molecule, please.
Answer with the recorded melting point of CCOC(=O)C1=C(c2ccccc2)c2ccc(OCCN3CCOCC3)cc2/C1=[N+](/C)[O-] [Compound 33] only.
102 to 104 °C
